- Tested on: AA8 CHO cells
- Assay overview: Cytotoxicity in HDR proficient AA8 CHO cells
- Format: cell-based
- Condition details: Cricetulus griseus, AA8, N2, with AZD7762 (0.1 μM), read-out: TH-302 IC50
pIC50: −log10 of the molar value.
Measure: pIC50

{"Compound string": "Cn1c(COP(=O)(NCCBr)NCCBr)cnc1[N+](=O)[O-]", "Data value": 5.92}

###

- Tested on: UV41
- Assay overview: Cytotoxicity in HDR deficient UV41 cells
- Format: cell-based
- Condition details: UV41, N2, with AZD7762 (0.1 μM); read-out: TH-302 IC50
- Procedure: After a wash to remove drugs, cells were incubated with fresh media at 37° C. for an additional 3 days in the presence of a Chk1 inhibitor. Cell viability was determined using AlamarBlue. For a doxorubicin group (doxorubicin also induces cell cycle arrest in the G2/M phase and was used as a non-hypoxia activated prodrug control), cells were co-treated with doxorubicin and Chk1 inhibitors for 3 days. […]
pIC50: −log10 of the molar value.
Measure: pIC50

{"Molecule": "Cn1c(COP(=O)(NCCBr)NCCBr)cnc1[N+](=O)[O-] [TH-302]", "Measure": "pIC50", "Data value": 7.22}
